Data credit: patent US9969709B2

Target: human recombinant trypsin (rh-trypsin) (Homo sapiens)
Assay: Trypsin inhibitory activity, human recombinant trypsin, BZiPAR fluorescent substrate
Conditions: 30 min at room temperature, read-out: r-h Trypsin inhibitory activity (IC50)
pIC50: −log10 of the molar value. Structures can show the parent of a compound that is named as a salt.
endpoint label: pIC50

Known pIC50 results, listed for orientation:
Challenge: So what does the record say about pIC50 for N=C(N)Nc1ccc(C(=O)Oc2ccc3c(C(=O)N(CC(=O)O)Cc4ccc(CC(=O)O)cc4)csc3c2)cc1 [Example 23] ?
Response given: 9.34

Challenge: # input compound: N=C(N)Nc1ccc(C(=O)Oc2ccc3c(c2)CCC3CC(=O)N(CC(=O)O)Cc2ccc3sc(C(=O)O)cc3c2)cc1 (centres unmarked) [Example 51] ; wanted: its pIC50
Response given: 9.47

Challenge: Query: pIC50; subject: N=C(N)Nc1ccc(C(=O)Oc2ccc3c(C(=O)N(CCC(=O)O)Cc4csc(C(=O)O)c4)csc3c2)cc1 [Example 54]
Response given: 9.54

I. N=C(N)Nc1ccc(C(=O)Oc2ccc3c(C(=O)N[C@@H](Cc4ccc(C(=O)O)cc4)C(=O)O)cccc3c2)cc1 [Example 3, monohydrochloride]
II. N=C(N)Nc1ccc(C(=O)Oc2ccc3c(C(=O)N(CC(=O)O)Cc4cccc(C(=O)O)c4)cccc3c2)cc1 [Example 15]
Challenge: For this pair, I and II , which shows a numerically higher pIC50? Give the label under which the chosen entry appears.
Response given: II
(II: 10.00, I: 9.68)

###

Property: response vs control in vivo at 5 mg/kg; scope: individual compounds
Tested on: ICR mice
Experiment: Test of increase in fecal protein concentration using mice
Type: in vivo, mouse
Conditions: Mus musculus, po, 9 h, 5 mg/kg oral, male ICR mice, feces collected 3 to 9 hours after feeding started, control group = 1; read-out: Fecal protein, Folds (vs. control)
Counter-ions that a name gives are not always drawn.
Give the value, in units of %, as a plain number.

Worked examples follow.
Challenge: Which response vs control in vivo at 5 mg/kg reading was recorded for the compound N=C(N)Nc1ccc(C(=O)Oc2ccc3cc(C(=O)N(CCC(=O)O)Cc4csc(C(=O)O)c4)ccc3c2)cc1 ?
Response given: 145

Challenge: Look at this compound and give its reported response vs control in vivo at 5 mg/kg. N=C(N)Nc1ccc(C(=O)Oc2ccc3c(C(=O)N[C@@H](Cc4ccc(C(=O)O)cc4)C(=O)O)cccc3c2)cc1 [Example 3, monohydrochloride]
Response given: 209

Challenge: Item under review: C[C@H](C(=O)O)N(Cc1csc(C(=O)O)c1)C(=O)c1cccc2cc(OC(=O)c3ccc(NC(=N)N)cc3)ccc12 . Reported response vs control in vivo at 5 mg/kg?
Response given: 218

Continuing:
Challenge: Dear colleague, I am looking for the recorded response vs control in vivo at 5 mg/kg of the following compound: N=C(N)Nc1ccc(C(=O)Oc2ccc3c(c2)CCCC3CC(=O)N(CC(=O)O)Cc2csc(C(=O)O)c2)cc1 (stereo not shown)
Response given: 198

###

Molecular target: human recombinant trypsin (rh-trypsin) (Homo sapiens, UniProt P07477)
Test: Trypsin inhibitory activity, human recombinant trypsin, BZiPAR fluorescent substrate
Conditions: 30 min at room temperature, read-out: r-h Trypsin inhibitory activity (IC50)
Counter-ions that a name gives are not always drawn.
endpoint label: IC50 (nM)

Consider the worked cases shown below.
Challenge: Tell me the measured IC50 of N=C(N)Nc1ccc(C(=O)Oc2ccc3c(c2)CCCC3CC(=O)N(CC(=O)O)[C@@H](Cc2ccccc2)C(=O)O)cc1 (some centres unmarked) [Example 22] , please.
Response given: 0.34

Challenge: Please give the measured IC50 for this molecule: N=C(N)Nc1ccc(C(=O)Oc2ccc3cc(C(=O)N(CC(=O)O)Cc4csc(C(=O)O)c4)ccc3c2)cc1 [Example 1, monohydrochloride]
Response given: 0.31

Challenge: Can you share its IC50? I mean this molecule: N=C(N)Nc1ccc(C(=O)Oc2ccc3c(c2)CCC3CC(=O)N(CC(=O)O)[C@@H](Cc2ccccc2)C(=O)O)cc1 (some centres unmarked) [Example 46]
Response given: 0.25

Challenge: # query: IC50 of entry N=C(N)Nc1ccc(C(=O)Oc2ccc3c(c2)CCC3CC(=O)N(CCC(=O)O)Cc2csc(C(=O)O)c2)cc1 (centres unmarked) [Example 50]
Response given: 0.28

a. Cl.N=C(N)Nc1ccc(C(=O)Oc2ccc3c(c2)CCCC3CC(=O)N(CC(=O)O)Cc2cccc(C(=O)O)c2)cc1 (single isomer, unassigned) [Example 6]
b. N=C(N)Nc1ccc(C(=O)Oc2ccc3cc(C(=O)N(CC(=O)O)Cc4ccc5sc(C(=O)O)cc5c4)ccc3c2)cc1 [Example 33]
c. N=C(N)Nc1ccc(C(=O)Oc2ccc3c(c2)OCC3CC(=O)N(CC(=O)O)Cc2cccc(C(=O)O)c2)cc1 (centres unmarked) [Example 10]
Challenge: Rank the items in ascending order with respect to IC50. // rank by listing labels in the order requested
Response given: b, a, c
(b: 0.18 nM, a: 0.29 nM, c: 1.2 nM)

P. N=C(N)Nc1ccc(C(=O)Oc2ccc3c(c2)CCC(C(=O)N(CC(=O)O)[C@@H](Cc2ccccc2)C(=O)O)C3)cc1 (some centres unmarked) [Example 31]
Q. N=C(N)Nc1ccc(C(=O)Oc2ccc3c(c2)CCCC3CC(=O)N(CCC(=O)O)Cc2csc(C(=O)O)c2)cc1 (centres unmarked) [Example 55]
Challenge: Looking only at measured IC50, which entry is lower, P or Q ? // return label of chosen record
Response given: P
(P: 0.23 nM, Q: 0.35 nM)

###

Target: human recombinant trypsin (rh-trypsin) (Homo sapiens, UniProt P07477)
Test: Trypsin inhibitory activity, human recombinant trypsin, BZiPAR fluorescent substrate
Details: 30 min at room temperature, read-out: r-h Trypsin inhibitory activity (IC50)
pIC50: −log10 of the molar value.
endpoint label: pIC50

Challenge: Requested read-out: pIC50. Entry: N=C(N)Nc1ccc(C(=O)Oc2ccc3c(C(=O)N(CC(=O)O)Cc4ccc5sc(C(=O)O)cc5c4)cccc3c2)cc1
Response given: 9.68

Challenge: Which pIC50 is reported for this compound? Cl.N=C(N)Nc1ccc(C(=O)Oc2ccc3c(c2)CCCC3CC(=O)N(CC(=O)O)Cc2cccc(C(=O)O)c2)cc1 (centres unmarked) [Example 2, monohydrochloride]
Response given: 9.40

Challenge: Given N=C(N)Nc1ccc(C(=O)Oc2ccc3c(C(=O)N[C@@H](Cc4ccc(C(=O)O)cc4)C(=O)O)csc3c2)cc1 , state its recorded pIC50.
Response given: 9.59

Challenge: Reported pIC50, compound C[C@H](C(=O)O)N(Cc1csc(C(=O)O)c1)C(=O)CC1CCc2cc(OC(=O)c3ccc(NC(=N)N)cc3)ccc21 (some centres unmarked) : ____
Response given: 9.44

Challenge: What does the record list as pIC50 for C[C@H](C(=O)O)N(Cc1csc(C(=O)O)c1)C(=O)CC1CCCc2cc(OC(=O)c3ccc(NC(=N)N)cc3)ccc21 (some centres unmarked) [Example 19] ?
Response given: 9.41

Challenge: Look up pIC50 for this compound: N=C(N)Nc1ccc(C(=O)Oc2ccc3c(c2)CCC(C(=O)N[C@@H](Cc2ccc(C(=O)O)cc2)C(=O)O)C3)cc1 (some centres unmarked)
Response given: 9.43

Challenge: What value of measured pIC50 is listed for N=C(N)Nc1ccc(C(=O)Oc2ccc3c(c2)CCCC3CC(=O)N(Cc2ccccc2)CC(CC(=O)O)CC(=O)O)cc1 (centres unmarked) ?
Response given: 9.70

Challenge: Which pIC50 value is on record for N=C(N)Nc1ccc(C(=O)Oc2ccc3c(c2)CCCC3CC(=O)N(CCc2ccc(C(=O)O)cc2)CC(=O)O)cc1 (centres unmarked) ?
Response given: 9.42

Challenge: pIC50 for N=C(N)Nc1ccc(C(=O)Oc2ccc3c(c2)CCCC3CC(=O)N(CC(=O)O)Cc2csc(C(=O)O)c2)cc1 (centres unmarked) ?
Response given: 9.49

Challenge: Can you look up the measured pIC50 of N=C(N)Nc1ccc(C(=O)Oc2ccc3cc(C(=O)N(CC(=O)O)Cc4cccc(C(=O)O)c4)ccc3c2)cc1 for me?
Response given: 9.64

Challenge: Given the entry C[C@H](C(=O)O)N(Cc1csc(C(=O)O)c1)C(=O)c1csc2cc(OC(=O)c3ccc(NC(=N)N)cc3)ccc12 , report its measured pIC50.
Response given: 9.59

Challenge: Please give the measured pIC50 for this compound: N=C(N)Nc1ccc(C(=O)Oc2ccc3c(c2)CCCC3CC(=O)N[C@@H](Cc2ccc(C(=O)O)cc2)C(=O)O)cc1 (some centres unmarked)
Response given: 9.59

Challenge: Fill blank: measured pIC50 of the compound N=C(N)Nc1ccc(C(=O)Oc2ccc3c(c2)CCC(C(=O)N(CC(=O)O)Cc2ccc4sc(C(=O)O)cc4c2)C3)cc1 (centres unmarked) is ____.
Response given: 9.64

Challenge: Dear colleague, I am looking for the recorded pIC50 of the following compound: N=C(N)Nc1ccc(C(=O)Oc2ccc3c(c2)CCCC3CC(=O)N(CC(=O)O)Cc2csc(CC(=O)O)c2)cc1 (centres unmarked)
Response given: 9.59
